Where these numbers come from: paper PMC9490236

Details: PAMPA
Where a SMILES comes first, the peptide text is derived from it. [ ]: non-standard residue; d: D form. NMeL = CN[C@@H](CC(C)C)C(=O)O; dNMeL = CN[C@H](CC(C)C)C(=O)O; NMeA = CN[C@@H](C)C(=O)O; dNMeA = CN[C@H](C)C(=O)O
Let's look at some compounds and their measured PAMPA_R3.
Just the number.

1. CC(C)C[C@H]1NC(=O)[C@@H](C(C)C)NC(=O)[C@H](CC(C)C)N(C)C(=O)[C@@H](Cc2ccccc2)NC(=O)[C@H](CC(C)C)N(C)C(=O)[C@H]2CCCN2C(=O)[C@@H]2CCCN2C(=O)[C@H]2CCCN2C(=O)[C@@H](C(C)C)NC(=O)[C@H]2CCCN2C1=O [Design D10.42] (cyclo([dP][NMeL][dF][NMeL][dV][dL][dP][dV][dP]P)) = 8.78E-07
2. CC(C)C[C@@H]1NC(=O)[C@@H]2CCCN2C(=O)[C@@H](Cc2ccccc2)NC(=O)[C@H](C)N(C)C(=O)[C@H](CC(C)C)NC(=O)[C@H](CC(C)C)N(C)C(=O)[C@@H](C)NC(=O)[C@@H](CC(C)C)NC(=O)[C@@H]2CCCN2C(=O)[C@@H](Cc2ccccc2)NC1=O (single isomer, unassigned) [Design D10.2.p2] = 4.68E-07
3. CC(C)C[C@@H]1NC(=O)[C@@H](CC(C)C)NC(=O)[C@@H](CC(C)C)N(C)C(=O)[C@@H](CC(C)C)N(C)C(=O)[C@H](C(C)C)NC(=O)[C@@H](C)N(C)C(=O)[C@@H]2CCCN2C(=O)[C@@H]2CCCN2C(=O)[C@@H](C)N(C)C1=O [Design D9.19] (cyclo(L[dNMeA]PP[dNMeA]V[dNMeL][dNMeL][dL])) = 1.16E-06

Turning now to a further compound:
Query: Any idea what its PAMPA_R3 is? The compound is CC(C)C[C@@H]1C(=O)N[C@H](Cc2ccccc2)C(=O)N2CCC[C@@H]2C(=O)N2CCC[C@@H]2C(=O)N2CCC[C@H]2C(=O)N[C@H](C(C)C)C(=O)N(C)[C@@H](C)C(=O)N(C)[C@@H](C)C(=O)N(C)[C@H](CC(C)C)C(=O)N1C [Design D9.25] (cyclo([dV][NMeA][NMeA][dNMeL][dNMeL][dF][dP][dP]P))
Response: 1.52E-06
